# TARGET OR SYSTEM: HA of ca A/chicken/Hong Kong/G9/97 (H9N2) (influenza A virus)
# MEASUREMENT DESCRIPTION: cell-based or functional assay
Each item that follows carries a reported Neutralization IC50, H9-HK97.
Just the number please, in µg/mL, no unit attached.

Worked examples, 3 binders total:
Antibody 6 (antibody, V domains shown) VH: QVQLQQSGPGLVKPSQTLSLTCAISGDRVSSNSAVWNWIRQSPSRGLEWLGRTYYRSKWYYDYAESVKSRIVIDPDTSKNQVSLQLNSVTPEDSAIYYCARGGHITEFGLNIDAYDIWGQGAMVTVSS VL: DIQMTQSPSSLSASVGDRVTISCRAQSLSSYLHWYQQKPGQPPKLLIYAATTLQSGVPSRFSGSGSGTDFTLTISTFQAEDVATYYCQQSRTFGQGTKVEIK	16.5
Antibody 3 (antibody, V domains shown) VH: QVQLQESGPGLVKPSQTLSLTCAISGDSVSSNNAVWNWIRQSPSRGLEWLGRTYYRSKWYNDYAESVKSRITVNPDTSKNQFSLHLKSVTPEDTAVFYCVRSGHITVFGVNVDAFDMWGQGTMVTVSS VL: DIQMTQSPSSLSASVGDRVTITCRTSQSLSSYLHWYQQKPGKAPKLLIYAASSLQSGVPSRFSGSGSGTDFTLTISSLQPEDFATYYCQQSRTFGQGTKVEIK	1.79
Antibody 10 (antibody, V domains shown) VH: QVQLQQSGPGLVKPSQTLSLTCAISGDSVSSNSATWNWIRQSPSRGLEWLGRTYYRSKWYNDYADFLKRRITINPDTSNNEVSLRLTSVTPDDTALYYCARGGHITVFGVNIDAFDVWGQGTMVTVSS VL: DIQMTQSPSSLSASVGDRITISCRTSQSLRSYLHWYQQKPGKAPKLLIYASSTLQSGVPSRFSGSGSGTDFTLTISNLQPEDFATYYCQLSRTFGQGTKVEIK	1.76

Reported Neutralization IC50, H9-HK97 for Antibody 5 (antibody, V domains shown) VH: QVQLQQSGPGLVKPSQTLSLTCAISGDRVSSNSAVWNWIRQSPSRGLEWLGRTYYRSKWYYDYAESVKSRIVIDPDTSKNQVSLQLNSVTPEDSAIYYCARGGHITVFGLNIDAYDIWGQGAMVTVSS VL: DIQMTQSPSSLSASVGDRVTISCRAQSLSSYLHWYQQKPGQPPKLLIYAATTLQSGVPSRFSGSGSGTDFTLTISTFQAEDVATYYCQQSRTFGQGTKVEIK was 2.43

Reported Neutralization IC50, H9-HK97 for Antibody 8 (antibody, V domains shown) VH: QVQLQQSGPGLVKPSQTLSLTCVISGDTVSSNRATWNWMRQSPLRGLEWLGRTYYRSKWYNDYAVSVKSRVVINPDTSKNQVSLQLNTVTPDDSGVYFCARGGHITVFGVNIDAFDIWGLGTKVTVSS VL: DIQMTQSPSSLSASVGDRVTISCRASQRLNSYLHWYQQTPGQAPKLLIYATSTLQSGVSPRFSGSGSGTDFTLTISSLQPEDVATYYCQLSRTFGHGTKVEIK was 26.4
